# Tested on: NCI-H460 lung
# procedure-summary: NCI-60 one-dose screen, 48 h
# test-parameters: 10 µM unless noted
# Description: Growth inhibition of the NCI-H460 human Non-Small Cell Lung tumor cell line is measured as a screen for anti-cancer activity. Cells are grown in 96 well plates and exposed to the test compound for 48 hours. Compounds are tested at a single concentration, which is 10^-5 M for most compounds. The reported endpoint is percent growth (GI% or GIPRCNT), where numbers from 0 - 100% represent growth inhibition, and numbers from -100% - 0 represent cell death. […]
About 83,000 compounds went through this panel and 20% of them were active in at least one assay; those are over-represented in the sample as a whole. Activity calls are given as the source filed them. Rule for the calls: active = growth percent below 10; inactive = the rest.
# valid calls are T = active, F = inactive; nothing else

{"smiles-str": "CN(C)c1ccc(/C=N/NC(=O)CSc2nc3sc4c(c3c(=O)n2-c2ccccc2)CCCCC4)cc1", "assigned-class": "T"}

Next:
Req: In this assay, the call recorded for `COc1ccc(N/N=C/c2ccc3c(c2)Sc2ccccc2N3C)cc1` was what?
Resp: F

---

# Tested on: SK-MEL-5 melanoma
# procedure-summary: NCI-60 one-dose screen, 48 h
# test-parameters: 10 µM unless noted
# Method: Growth inhibition of the SK-MEL-5 human tumor cell line is measured as a screen for anti-cancer activity. Cells are grown in 96 well plates and exposed to the test compound for 48 hours. Compounds are tested at a single concentration, which is 10^-5 M for most compounds. The reported endpoint is percent growth (GI% or GIPRCNT), where numbers from 0 - 100% represent growth inhibition, and numbers from -100% - 0 represent cell death. For example, a value of 40 represents 60% growth inhibition. […]
Compounds without any hit were thinned out: in the full panel of roughly 83,000, 20% have a hit. The source made the active and inactive calls. The calls were made as follows: active = growth percent below 10; inactive = the rest.
# valid calls are t (active), f (inactive); nothing else

{"compound": "CCOc1ccc(N2C(=O)CCSC2=S)cc1", "assigned-class": "f"}

Req: In this assay, the call recorded for `COc1cccc(/C=C2\CCc3ccccc3C2=O)c1` was what?
Resp: f

Req: // same read-out, input: `COc1cc2cc(Oc3ccc(NC(=O)Nc4ccc(F)c(C(F)(F)F)c4)cc3)c(C)nc2cc1OCCN1CCCCC1`
Resp: t

Req: // same read-out, input: `C=C(C)[C@@H]1CC[C@]2(COC(=O)c3cccnc3)CC[C@]3(C)[C@H](CC[C@@H]4[C@@]5(C)CCCN(C(=O)c6cccnc6)C(C)(C)[C@@H]5CC[C@]43C)[C@@H]12`
Resp: t

Req: // same read-out, input: N#C/C(=C/C=C/c1ccccc1)S(=O)c1ccccc1 (centres undefined)
Resp: t

Req: // same read-out, input: `COc1cc(/C=N/NC(=O)c2ccc3nc(-c4ccc(Cl)cc4)[nH]c3c2)cc(OC)c1OC`
Resp: f

---

# Tested on: UO-31 renal
# procedure-summary: NCI-60 one-dose screen, 48 h
# test-parameters: 10 µM unless noted
# Description: Growth inhibition of the UO-31 human tumor cell line is measured as a screen for anti-cancer activity. Cells are grown in 96 well plates and exposed to the test compound for 48 hours. Compounds are tested at a single concentration, which is 10^-5 M for most compounds. The reported endpoint is percent growth (GI% or GIPRCNT), where numbers from 0 - 100% represent growth inhibition, and numbers from -100% - 0 represent cell death. For example, a value of 40 represents 60% growth inhibition. […]
Compounds without any hit were thinned out: in the full panel of roughly 83,000, 20% have a hit. Activity calls are given as the source filed them. The calls were made as follows: active = growth percent below 10; inactive = the rest.
# valid calls are active, inactive; nothing else

Worked examples follow.
{"compound": "Cc1c2cnccc2c(C)c2c1c1cc(C(=O)O)ccc1n2C", "assigned-class": "active"}
{"compound": "CCCn1cnc2c(c1=N)C(c1ccc(Cl)cc1)c1sc3c(F)cccc3c1O2 (centres undefined)", "assigned-class": "inactive"}
{"compound": "COc1cc2cc(Oc3ccc(NC(=O)Nc4ccc(F)c(C(F)(F)F)c4)cc3)c(C)nc2cc1OCCN1CCCCC1", "assigned-class": "inactive"}
{"compound": "O=C(Nc1ccc2c(c1)-c1ccccc1C2)C1CC(=O)N(c2ccc3c(c2)OCO3)C1 (centres undefined)", "assigned-class": "inactive"}
{"compound": "CCOC(=O)/C=C1\\S/C(=N\\Nc2cc(=O)[nH]c3ccc(OC)cc23)N(c2ccccc2)C1=O", "assigned-class": "inactive"}
{"compound": "O=C(Nc1ncc(Cc2ccc(Cl)cc2)s1)C1=NCCCCN1", "assigned-class": "inactive"}
{"compound": "CC(=O)Cc1nsc(NC(=O)c2cc(-c3cc(Cl)ccc3Cl)oc2C)n1", "assigned-class": "inactive"}
{"compound": "COc1cc2c(cc1-c1c(C)noc1C)ncc1nc(C3CCOCC3)n(C3CCC(OC(F)F)CC3)c12 (centres undefined)", "assigned-class": "inactive"}

Next:
Req: In this assay, the call recorded for `CCN1CCN(C(=O)[C@]23CC[C@@H](C)[C@H](C)[C@@H]2C2=CC[C@@H]4[C@@]5(C)C/C(=C/c6ccncc6)C(=O)C(C)(C)[C@@H]5CC[C@@]4(C)[C@]2(C)CC3)CC1` was what?
Resp: active
